assay: yeast display, Sf9 membrane polyspecificity reagent, FACS + sequencing; frameworks hold sequencing errors

[
  {
    "Query sequence": "QVQHVESGGGLVQAGGSLRLSSAASGRTFGIYAMGWSRQAPGKERELVATISWRGGSTYYADSLKGRFTISRDNSKNTVYLQMNSLKPEDTAVDYCAAGYYPYWGQGTQVTVSS",
    "polyreactivity (PSR sort gate)": "low polyreactivity"
  },
  {
    "Query sequence": "QVQLVESGGGIVQAGGSLRLSCAASGSIFQGNAMGWYRQAAGKERELVAAITYSGGSTYYADSVKGRFTISRDNAKNTVYLQMNSLKPEDTAVSYCNTTLRDSRQYVDRAPYTRYDYWGQGTQVTVSS",
    "polyreactivity (PSR sort gate)": "low polyreactivity"
  },
  {
    "Query sequence": "QVQLVESGGGLVQAGGSLRLSCAASGRIFSWYDMGWDRQAPGKERELVAAISSGGSTIYADSVKGRFTISRDNAKQTVYLQMNSLKPEDTAVSYCNKSPSWWRYKTGLDYWGQGTQVTVSS",
    "polyreactivity (PSR sort gate)": "high polyreactivity"
  },
  {
    "Query sequence": "QVQLVESVGGLVQAGGSLRLSCAASGSIFVTNALGWYRQAPGKERELVAAISSGGNTNYADSVKGRFTISRDNAKNTVYLQMNSLKPEDTAVYDCAKDPDKVDYVDMDYWGQGTQVTVSS",
    "polyreactivity (PSR sort gate)": "low polyreactivity"
  },
  {
    "Query sequence": "QVHLVESVGGLVQAGGSLRLSCAASGRTSGANAMGWYRQAPGKERELVAAIRYSVGSTYYADSVKGRFTISRDNAKNTVYLQMISLKPEDTAVYYCAARGYPKRGGYWGQGTQVTVSS",
    "polyreactivity (PSR sort gate)": "high polyreactivity"
  }
]

====

assay: yeast display, Sf9 membrane polyspecificity reagent, FACS + sequencing; frameworks hold sequencing errors

[
  {
    "Query sequence": "QLQLVESGGGLVQAGGSLRLSCAASGLIFRYYTMGWYRQAPGKERELVATITRGDSTYYADSVKGRFTISRDNAKNTVYLQMNSLKPEDTAVYFCAAAGWSRVGYWLKYDYWGQGTQVTVSS",
    "polyreactivity (PSR sort gate)": "high polyreactivity"
  },
  {
    "Query sequence": "QVQLVESGGGLDQAGGSLRLSSAASGRTVDIYAMGWYRQAPWKEWELVAAITRGGSTYYADSVKGRFTISRDNAKNTVYLQMNCLIPEDTAVYYCSAKLGTGYRRWYDYWGQGTQVTVSS",
    "polyreactivity (PSR sort gate)": "high polyreactivity"
  },
  {
    "Query sequence": "QVQLVESGGGLVQAGGSLRLSCAASGSIFIRNVMGWSRQAPGKERELVAAISSRGGSTYYADSVKGRFTISRDNAKNTVDLQMNSLKPEDTAVYYCNRYSYLFPYYWKYDYWGQGTQVTVSS",
    "polyreactivity (PSR sort gate)": "high polyreactivity"
  }
]

====

experiment: yeast display, Sf9 membrane polyspecificity reagent, FACS + sequencing; frameworks hold sequencing errors

[
  {
    "Query sequence": "QVQLVDSGGGLVQAGGSLRLSCAASGSIYSSYAMGWYRQAPGKERELVASISSGGSKNYADSVKGRFTISRVNAKNTVYLQMNSLKPEDTAFYYCNVDLYNWRGDYTGYDYWGQGTQVTVSS",
    "polyreactivity (PSR sort gate)": "low polyreactivity"
  },
  {
    "Query sequence": "QVQLVESGGGLVQAGGSLRLSCAASGRIFSRYAMGWYRQAPGKERELVAAISKSGGRTYYADSVKGRFTISRDNAKNTVYLQKNSLKPEDTAVYYCATVIFRSSGYYYWGQGTQVTVSS",
    "polyreactivity (PSR sort gate)": "high polyreactivity"
  },
  {
    "Query sequence": "QVQLVESGGGLVQAGGSLRLSCAASGSNFDDNAMGWYRQAPGKERELVAAITRSGGSTYYADSVKGRFTISRDNAKNTVYLQMISLKPEDTAVYYCAAAAYHSYGPGKRFYYWGQGSQVTVSS",
    "polyreactivity (PSR sort gate)": "high polyreactivity"
  },
  {
    "Query sequence": "QVQLEETGGGLVQAGGSLRLSCAASGITFGDYAMGWYRQAPGKERELVAAISFTGASTYYADSVKWRFTISRDNAKNTVYLLMNSLKPDDTPVYYCAADPYVPYQDFLSGFDFWGQGTQVTVSW",
    "polyreactivity (PSR sort gate)": "low polyreactivity"
  }
]

====

experiment: yeast display, Sf9 membrane polyspecificity reagent, FACS + sequencing; frameworks hold sequencing errors
Measure: polyreactivity (PSR sort gate)

[
  {
    "Query sequence": "QVQLVESGGGLVQAGGSLRLSCAASGSTFRGYAMGWYRLAPGKEREFVASISLSGGSTYYADSVKGRFTISRDNAKNTVDSQMNSRKPEDTAVYDGAARARGYGWRGDYWGQGTHVTVSS",
    "Measure": "polyreactivity (PSR sort gate)",
    "Measured": "low polyreactivity"
  },
  {
    "Query sequence": "QVQLVESARGLVQAGGSLRLRCAASGSTLSVYVMGWYRQAPGKERELVAAITRGGSTNYADSVKGRFTISRDNAKNTVYLQINSLNPEDTAVYYCAARSFVYYHHGEGSRSGRYYYWGQGTQVTVSS",
    "Measure": "polyreactivity (PSR sort gate)",
    "Measured": "high polyreactivity"
  },
  {
    "Query sequence": "QVQLGESGGGLVQAGGSLRLSCAASGFIFRNYAIGWYRPPPGKERELVAAISRSGGSKYYADCVKGRFTISRDKAKNSVYLQMNSLKPVDTAVYYCNKDPRGRIPVPGTWIMDYWGQGTQVTVSS",
    "Measure": "polyreactivity (PSR sort gate)",
    "Measured": "high polyreactivity"
  },
  {
    "Query sequence": "QVQLEESGGGLVQAGGSLRLSCAASGSIFRNNSMGWYRKAPGKERVLVAVISRRSGNTYYADSVKGRLTISRDNAKNTVYLQMNSLKAEDTAVYYCAADYSKSSIRGEYWGQGTQVTVSS",
    "Measure": "polyreactivity (PSR sort gate)",
    "Measured": "low polyreactivity"
  },
  {
    "Query sequence": "QVQLVESGGGLVQAGGRLRVSCAASGFTFNCYTMGGSRQAPGKERELVAAITWSGGSTYYADSVKGRFTISRDNAKNSVYLQMNSLIPEDTAVYYCAVYPYGSQYYALDYWGQGTQVTVSS",
    "Measure": "polyreactivity (PSR sort gate)",
    "Measured": "high polyreactivity"
  },
  {
    "Query sequence": "QVQLVESGGGLVQAGGSLRLSCAASGCIFRYYAMGWYRQAPGKERELVAAISWGGGSTYYADSVKGRCTISRDNAKNTVYLQINSLKPEDTAVYYCNTYTYAWSRSKRGYWGQGTQVTVSS",
    "Measure": "polyreactivity (PSR sort gate)",
    "Measured": "high polyreactivity"
  },
  {
    "Query sequence": "QVQLVESGGGLVQAGGSLRLSCAASGRIFRYNTMGWYRQAPGKERELVADITSSDSSTYYADSVKGRFTISRDNAKNTVYLQMNSLKPEDTAVYYCAARDSGYGWRYYYWGQGTQVTVSS",
    "Measure": "polyreactivity (PSR sort gate)",
    "Measured": "low polyreactivity"
  },
  {
    "Query sequence": "QVQLQESGGGLVQAGGSLSLSCAASGSNFVSVTMGWYRQAHGKERELVASIGRGSTTNHADSVKGRFTISRDNAKNIVYLLMNSLKPEDTAVYYCAALESYGKYHGYWGQGTQVTVSS",
    "Measure": "polyreactivity (PSR sort gate)",
    "Measured": "low polyreactivity"
  }
]

====

assay: yeast display, Sf9 membrane polyspecificity reagent, FACS + sequencing; frameworks hold sequencing errors

[
  {
    "Query sequence": "KVQLVESGGGLVQAGGSLRLSCAASGLILWYYAMGWAIQAPGKERELVAAISRYGASTYYADSVKGRFTISRDNAKNTDYLQLNSLKPEDTAVYYCATGSSRYRHQRDYLGQGTQVTVSS",
    "polyreactivity (PSR sort gate)": "high polyreactivity"
  },
  {
    "Query sequence": "QVQLVESGGGLVQAGGSLRLSCAASGLIFGRYTMGWYRQAPGKEREFVAAISRSGGSTYYADSVKGRFTISRDNAKITVYLQRNSLKPEDTAVYYCAARGSYTRPKRYGYWGQGTQVTVSS",
    "polyreactivity (PSR sort gate)": "high polyreactivity"
  },
  {
    "Query sequence": "QVQLVESGGGLVQAGGSLRLSCAASGSIYTHYAMGWYRQAPRKQRELVAAISRRGGSTYYADSVKGRFTISRDNAKNTVYLPMHSLKPEDTAVYYCAKSPDTAKEYDYWGQGTQVTVSS",
    "polyreactivity (PSR sort gate)": "high polyreactivity"
  }
]

Recorded values, source the nanobody polyreactivity screen of Harvey et al. (2022).
